For each of the compounds below, state its activity coefficient.
experiment: activity coefficient (dimensionless); of the first substance listed, at infinite dilution; xn = mol fraction of the nth substance listed; settings: 348.15 K; 101.33 kPa; Liquid; Chromatography; x1 = 0
Give the figure by itself; no unit, no explanation.

What value of activity coefficient has been recorded for this entry: CCC(=O)OC [methyl propanoate] + CCCCCCCCCCCC[N+](C)(C)CCOc1ccccc1.O=S(=O)([N-]S(=O)(=O)C(F)(F)F)C(F)(F)F 0.599

Another compound: C=CCCCCC [1-heptene] + CCCCCCCCCCCC[N+](C)(C)CCOc1ccccc1.O=S(=O)([N-]S(=O)(=O)C(F)(F)F)C(F)(F)F 2.76

Another compound to look at: CC#N [acetonitrile] + CCCCCCCCCCCC[N+](C)(C)CCOc1ccccc1.O=S(=O)([N-]S(=O)(=O)C(F)(F)F)C(F)(F)F 0.523
